Known PBM binding z-score of a selection of sequences
tested on: FXR:RXRa (NR concentration 270 nM, RXRa partner concentration 90 nM); experiment: PBM binding z-score (relative to random genomic background probes); higher = stronger binding; sequences stand for … in GC…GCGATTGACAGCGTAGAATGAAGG
The answer should be a number; do not append a unit.

Known PBM binding z-score results, listed for orientation:
1) ATCGAAAGGTTGTGAGGTGAGTATACAGAAAGGC; 0.714
2) TCTCGGAGGACACGAAGGTCAGTGCTTTCCAGAG; 1.02
3) CAAACTAGGTCAAATGTCAAAGTCGAGCCAACCA; 5.99
4) CCGACTGGGGCAGCAAGGTTACCATACCATCCGG; -0.0165
5) CGAACTAGGGCATCCAGGACAGTGAATACATTGA; 0.197

Measured PBM binding z-score, CCGACTGGGGCAAGGTTAACATAACGCACAGCCA : 0.315

Measured PBM binding z-score, GCTCGGAGGACAAGGTCAGAGCTTTGTCCGTAGA : 1.71

Measured PBM binding z-score, ATCTCTAGGTCACAAGTTCAGTGAAAGAGAGGAC : 3.91

Measured PBM binding z-score, TCTAGCAGGCCAGAGGGTTACTCAAGAGGTACGG : -0.419

Measured PBM binding z-score, ATATGTAGGTTAAGGATCATTCAGGTTGGTTCGC : 0.726

Measured PBM binding z-score, GTTCGGAGGACAAGGTCAGAGCTTTGTCCGTAGA : 1.57

Measured PBM binding z-score, CTTCCAAGGTCAATGCTAGGTCAGTGAAAGCATT : 6.83

###

test system: VDR:RXRa (NR concentration 270 nM, RXRa partner concentration 90 nM); test: PBM binding z-score (relative to random genomic background probes); higher = stronger binding; sequences stand for … in GC…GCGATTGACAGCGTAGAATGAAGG
Categories are assigned from the measured PBM binding z-score using these intervals: class 0: < 0.3; class 1: ≥ 0.3 and < 3; class 2: ≥ 3

1) TTACCAAGGTGAAAGGTCGTTCATGCACGCCTTG; class 2
2) CGAACTAGGGCATTGACAGGACAGTGAATAGTAA; class 0
3) TCCTGTAGATCAAAGGTTAAGAAAGCCGAAGCCT; class 1
4) TAGCCTATGTCAGATCGGGCCAGTATACGCTATA; class 0
5) ATACCAAAGTGATCGTGAGGTCGTTGATACTAAC; class 1

Q. Could you place TCATATAGGTAAACAGGTGACAGTCCGTAAGTTA in its proper category? Many thanks.
A. class 1

Q. Could you place CGAACTAGGTCATTCAGGACAGTGAATACATTGA in its proper category? Many thanks.
A. class 2

###

tested on: RARb:RXRa (NR concentration 270 nM, RXRa partner concentration 90 nM); assay: PBM binding z-score (relative to random genomic background probes); higher = stronger binding; sequences stand for … in GC…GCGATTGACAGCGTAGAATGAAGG
Tag: class 1 if measured PBM binding z-score is not below 1, class 0 if it is.

1) TTACCAAGGTGAAGGTCGTTGAGCCCTCTGTAGA; class 1
2) ACAGACGGGTGATGAAGGTAACTCAGGCTATCAT; class 0
3) TGAATGAGGTTATATGATCAGGGAACGTTGCAAA; class 1

Q. // inclusive: PBM binding z-score at least 1? input: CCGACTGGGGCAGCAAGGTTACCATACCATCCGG
A. class 1

Q. // inclusive: PBM binding z-score at least 1? input: GCTAGTTGGTCAGTAAAAGGTCACACGCCGGTCG
A. class 1

Q. // inclusive: PBM binding z-score at least 1? input: ACTTACGGGTCAACGAGCTTATAGCACGCGTATA
A. class 1

Q. // inclusive: PBM binding z-score at least 1? input: CTCGAAAGGTCGTGCTCAGTTGAGTATACCAAAC
A. class 1

Q. // inclusive: PBM binding z-score at least 1? input: ATCTCGAGGTAAAGATAGTTCAGTGAATGCAAAT
A. class 0

Q. // inclusive: PBM binding z-score at least 1? input: TCAGACAGGTGAAGCTAACTCAGGTACGCAGTCG
A. class 0

Q. // inclusive: PBM binding z-score at least 1? input: GGTAGCAGGCCATTTGGGTCACTCAATGACGGGC
A. class 1

Q. // inclusive: PBM binding z-score at least 1? input: CAGCCAAGGTCAGGGCCAGTATAGGAGGAACGTT
A. class 1

Q. // inclusive: PBM binding z-score at least 1? input: GTTTGTAGATCAAGGTTAAGAAAGACTAAGCTAA
A. class 1

###

system: LXRa:RXRa (NR concentration 270 nM, RXRa partner concentration 90 nM); assay: PBM binding z-score (relative to random genomic background probes); higher = stronger binding; sequences stand for … in GC…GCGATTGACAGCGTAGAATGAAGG
assay_endpoint: PBM binding z-score
The answer should be a number; do not append a unit.

Measured PBM binding z-score, GCAGACAGGTGAAACGCAGGTAACACAGGGTGGC : -0.0189

Measured PBM binding z-score, ATATGTAGGTTAAGGGTCATTCTGGTTGGTTCGC : 4.75

Measured PBM binding z-score, ACTGGCAGGCCAAGTTTGGGTCACTCAAACAAAG : 0.00721

Measured PBM binding z-score, TAGCCTAGGTCATGGCCCAGTATACCACGCGAAC : 3.85

Measured PBM binding z-score, AGAACGTGGGCAATGAGTTGATAGCACGGGTGGC : -0.786

Measured PBM binding z-score, GATACAGGGTCAGCTAGAGGCTAGAGTATGGAAA : 2.5

Measured PBM binding z-score, CGTCCAAGGTCAAGGTCAGTCAAAGAGACTCGAA : 5.91

Measured PBM binding z-score, TAGCCTAGATCATGCGGGCCAGTATAGTGTCGGC : -1.33

Measured PBM binding z-score, TCTCGGAGGACACGAAAGGTCAGAGCTCGACATC : 3.71

###

system: PPARg DBDmut:RXRa IVT, anti-PPARg (DBD mutation: PPARg1 K132A/R137A, NR concentration 270 nM, RXRa partner concentration 90 nM); experiment: PBM binding z-score (relative to random genomic background probes); higher = stronger binding; sequences stand for … in GC…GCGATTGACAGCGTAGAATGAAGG
Tag: 1.0 if measured PBM binding z-score is not below 0.2, 0.0 if it is.

Recorded results for 5 sequences are shown here.
1. ACTATTAGATGAGACGAGGGCAACCGATAGGTTG; 1.0
2. GCGACTGGGGCAAATCAGGTTACCATAAGGTTGG; 0.0
3. CAAACAAGGTCAAGGTCAAAGTCGGTTTGTGCCA; 1.0
4. CAAACTTGGTCAAGGTCAAAGTCGGTTTGTGCCA; 1.0
5. CGAACAAGGTCAAGGACAGTGAATCTCCGCACGC; 1.0

Q. // inclusive: PBM binding z-score at least 0.2? input: TTGCCTAGGTCAGATCGGGCCAGTATACGCTATA
A. 0.0

Q. // inclusive: PBM binding z-score at least 0.2? input: CGAACTAGGTCATAGACAGGACAGTGAATAGTAA
A. 1.0

Q. // inclusive: PBM binding z-score at least 0.2? input: GCTATTAGTTGAAAGGGCAAGCGAATGATTCTCG
A. 0.0

Q. // inclusive: PBM binding z-score at least 0.2? input: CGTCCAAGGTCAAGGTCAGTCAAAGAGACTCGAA
A. 1.0

Q. // inclusive: PBM binding z-score at least 0.2? input: AGAATGAGGTTATACGTAGATCTGGGAAGAAAGT
A. 1.0

Q. // inclusive: PBM binding z-score at least 0.2? input: ACTAGCAAGCCAAGGGTCACTCAAGATTAGTCCG
A. 0.0

Q. // inclusive: PBM binding z-score at least 0.2? input: TCTATTAGTCGATTAGGGCAACCGAAACAGCGGA
A. 1.0

###

tested on: THRa:RXRa (NR concentration 90 nM, RXRa partner concentration 90 nM); assay: PBM binding z-score (relative to random genomic background probes); higher = stronger binding; sequences stand for … in GC…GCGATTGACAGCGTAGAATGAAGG
assay_endpoint: PBM binding z-score

1) ATCTCTAGCTAACCAAGTTCAGTGAATGCCGAAC; 0.509
2) TCGAGTAGGTTACCAATAGGGCATTCAGCTTTCT; 0.215
3) CCTAGAAGGCCAGGGTCACTCAAGCATTTCGCTT; 2.96
4) AGAAAGAGGGCAATGAGTTGATAGCACGGGTGGC; 0.681
5) TCTTGTAGATCAAGGAGGTTAAGAAAGCCTGAGT; 0.835
6) AGTCAAAGTTCGTCTAGGTAACGTAAGATATGCT; 1.97
7) CGAACTAGGTCATTGACAGGACAGTCAATAGTAA; 2.83
8) TCTTGTAGATCAACAGGGGGTTAAGAAAGATCGA; 1.86
9) CAAACTAGGTCAAGAGGTCAAATTCCGCTTCCCG; 4.58
10) GAAACGAGGGCAAGTTGATAGCAGAGTTTGATGG; 1.41

For CTCGAAAGGTCGTGCTCAAGTGAGTATACCAAAC on THRa:RXRa (NR concentration 90 nM, RXRa partner concentration 90 nM), measured PBM binding z-score was 2.31

For TCTTGTAGATCAATAGAGGTTAAGAAGGTGCGCT on THRa:RXRa (NR concentration 90 nM, RXRa partner concentration 90 nM), measured PBM binding z-score was 2.37

Values compiled from the supplement of paper PMC6555819.
